# target entity: UniProt:P09960
# assay details: Peptidase assay of LTA4H with pNa and AMC conjugates
# Assay type: biochemical
# Set-up: made in house; host or cells: Escherichia coli JM101
# conditions: 1 mM L-Lys-pNa; read-out: IC50, peptidase activity with L-Lys-pNa
pIC50: −log10 of the molar value.
quantity name: pIC50

>>> obs_value("Nc1nc(-c2ccc(Cc3ccccc3)cc2)co1 [TTO, 4-(4-benzylphenyl) oxazol-2-amine]")
6.05
>>> obs_value("Nc1nc(-c2ccc(Cc3ccccc3)cc2)cs1 [ARM1, 4-(4-benzylphenyl) thiazol-2-amine, reference compound]")
5.97

----------
# target entity: LTA4H (Homo sapiens)
# assay details: Isothermal titration calorimetry with LTA4H
# Type: binding
# Set-up: made in house; host or cells: Escherichia coli JM101
# conditions: 25 mM Tris pH 7.8, 3% DMSO, 25 °C; read-out: dissociation constant (Kd) by ITC
pKd: −log10 of the molar value.
quantity name: pKd

>>> obs_value("Nc1nc(-c2ccc(Cc3ccccc3)cc2)cs1 [ARM1, 4-(4-benzylphenyl) thiazol-2-amine, reference compound]")
6.60
>>> obs_value("Nc1nc(-c2ccc(Cc3ccccc3)cc2)co1")
6.48

----------
# target entity: LTA4H (Homo sapiens)
# assay details: Peptidase assay of LTA4H with pNa and AMC conjugates
# Assay type: biochemical
# Set-up: made in house; host or cells: Escherichia coli JM101
# conditions: IC50, peptidase activity with L-Arg-AMC, 5 µM L-Arg-AMC
quantity name: IC50 (nM)
State just the number; it will be interpreted in nM.

What measured IC50 goes with Nc1nc(-c2ccc(Cc3ccccc3)cc2)c[se]1 ? 380

----------
# target entity: 5-LOX (Homo sapiens)
# Sequence (P09917 whole entry): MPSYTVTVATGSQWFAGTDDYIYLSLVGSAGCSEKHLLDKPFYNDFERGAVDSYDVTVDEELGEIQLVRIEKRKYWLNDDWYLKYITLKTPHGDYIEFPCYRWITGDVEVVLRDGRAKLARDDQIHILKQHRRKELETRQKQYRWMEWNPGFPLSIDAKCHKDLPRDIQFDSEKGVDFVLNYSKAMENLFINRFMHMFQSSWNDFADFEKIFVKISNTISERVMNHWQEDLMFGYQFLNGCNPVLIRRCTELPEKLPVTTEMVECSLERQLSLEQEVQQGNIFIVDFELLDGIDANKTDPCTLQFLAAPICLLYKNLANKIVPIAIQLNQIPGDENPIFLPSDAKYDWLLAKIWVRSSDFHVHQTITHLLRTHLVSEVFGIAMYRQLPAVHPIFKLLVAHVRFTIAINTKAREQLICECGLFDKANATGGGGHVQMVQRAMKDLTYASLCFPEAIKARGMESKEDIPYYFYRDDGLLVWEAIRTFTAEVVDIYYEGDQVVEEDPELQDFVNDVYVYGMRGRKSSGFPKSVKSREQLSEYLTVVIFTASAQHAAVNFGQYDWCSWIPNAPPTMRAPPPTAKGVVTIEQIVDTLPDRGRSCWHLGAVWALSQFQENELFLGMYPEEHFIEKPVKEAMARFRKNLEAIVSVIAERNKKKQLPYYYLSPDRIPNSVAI
# assay details: 5-LOX product formation from intact PMNs: 5S-HETE (cellular activity of 5-LOX)
# Format: cell-based
# Parameters: stimulated intact polymorphonuclear neutrophils (PMNs); endogenous in cells; host or cells: human primary polymorphonuclear neutrophils (PMNs) from peripheral blood
quantity name: pIC50
# pIC50: negative log10 of molar concentration; output just the value

What measured pIC50 goes with Nc1nc(-c2ccc(Cc3ccccc3)cc2)c[se]1 [TTSe, 4-(4-benzylphenyl) selenazol-2-amine] ? 5.64

----------
# target entity: LTA4H (Homo sapiens, UniProt P09960)
# Sequence (P09960 1-611): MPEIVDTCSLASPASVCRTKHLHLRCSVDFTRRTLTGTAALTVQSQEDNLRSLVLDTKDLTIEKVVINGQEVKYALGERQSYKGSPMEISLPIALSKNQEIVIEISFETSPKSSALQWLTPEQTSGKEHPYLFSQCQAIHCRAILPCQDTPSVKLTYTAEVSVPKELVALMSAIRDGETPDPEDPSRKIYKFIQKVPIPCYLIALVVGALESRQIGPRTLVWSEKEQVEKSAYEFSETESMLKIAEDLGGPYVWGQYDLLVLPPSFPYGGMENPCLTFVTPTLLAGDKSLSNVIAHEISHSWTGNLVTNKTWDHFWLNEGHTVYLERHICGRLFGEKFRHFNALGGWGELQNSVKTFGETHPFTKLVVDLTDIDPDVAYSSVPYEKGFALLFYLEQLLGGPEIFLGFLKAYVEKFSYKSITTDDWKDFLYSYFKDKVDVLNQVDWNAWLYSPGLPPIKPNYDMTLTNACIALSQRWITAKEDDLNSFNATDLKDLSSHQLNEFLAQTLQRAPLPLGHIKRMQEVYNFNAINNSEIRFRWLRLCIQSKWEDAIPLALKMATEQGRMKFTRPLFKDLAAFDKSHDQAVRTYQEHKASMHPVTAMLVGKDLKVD
# assay details: Peptidase assay of LTA4H with pNa and AMC conjugates
# Assay type: biochemical
# Parameters: made in house; host or cells: Escherichia coli JM101
# conditions: IC50, peptidase activity with L-Lys-pNa, 1 mM L-Lys-pNa
quantity name: pIC50
# pIC50: negative log10 of molar concentration; output just the value

What measured pIC50 goes with Nc1nc(-c2ccc(Cc3ccccc3)cc2)c[se]1 ? 6.00

----------
# target entity: LTA4H (Homo sapiens, UniProt P09960)
# assay details: 5-LOX product formation from intact PMNs: LTB4 (cellular activity of LTA4H)
# Assay type: cell-based
# conditions: A23187-activated intact PMNs, LTB4 formation; read-out: IC50 on the activity of LTA4H (LTB4) in PMNs
pIC50: −log10 of the molar value.
quantity name: pIC50

>>> obs_value("Nc1nc(-c2ccc(Cc3ccccc3)cc2)cs1 [ARM1, 4-(4-benzylphenyl) thiazol-2-amine, reference compound]")
6.22
>>> obs_value("Nc1nc(-c2ccc(Cc3ccccc3)cc2)co1")
6.10

----------
# target entity: LTA4H (Homo sapiens)
# assay details: Peptidase assay of LTA4H with pNa and AMC conjugates
# Format: biochemical
# Set-up: made in house; host or cells: Escherichia coli JM101
# conditions: 1 mM L-Arg-pNa; read-out: IC50, peptidase activity with L-Arg-pNa
pIC50: −log10 of the molar value.
quantity name: pIC50

>>> obs_value("Nc1nc(-c2ccc(Cc3ccccc3)cc2)cs1 [ARM1, 4-(4-benzylphenyl) thiazol-2-amine, reference compound]")
6.44
>>> obs_value("Nc1nc(-c2ccc(Cc3ccccc3)cc2)co1")
6.34

----------
# target entity: LTA4H (Homo sapiens, UniProt P09960)
# assay details: Thermal shift assay with differential scanning fluorimetry
# Format: binding
# Set-up: made in house; host or cells: Escherichia coli JM101
quantity name: pKd
# pKd: negative log10 of molar concentration; output just the value

What measured pKd goes with Nc1nc(-c2ccc(Cc3ccccc3)cc2)c[se]1 ? 6.52

----------
# target entity: LTA4H (Homo sapiens, UniProt P09960)
# assay details: Isothermal titration calorimetry with LTA4H
# Assay type: binding
# Parameters: made in house; host or cells: Escherichia coli JM101
# conditions: dissociation constant (Kd) by ITC, 25 mM Tris pH 7.8, 3% DMSO, 25 °C
quantity name: pKd
# pKd: negative log10 of molar concentration; output just the value

What measured pKd goes with Nc1nc(-c2ccc(Cc3ccccc3)cc2)c[se]1 ? 6.43

----------
# target entity: LTA4H (Homo sapiens, UniProt P09960)
# assay details: Thermal shift assay with differential scanning fluorimetry
# Type: binding
# Design: made in house; host or cells: Escherichia coli JM101
# conditions: from Tm concentration–response curves; read-out: Kd by differential scanning fluorimetry
# Method: DSF, also known as the thermal shift assay, was carried out in 25 mM Tris-HCl pH 7.8 containing 50 ng/µL LTA4H, 2X SYPRO Orange (Life Technologies, Carlsbad, CA, USA), 3% DMSO or 0–300 µM of an inhibitor. […] Relative fluorescence intensities (RFU) were recorded with a C1000 Touch Thermal Cycler (Bio-Rad, Hercules, CA, USA) and a CFX-96 Real-Time System. […]
pKd: −log10 of the molar value.
quantity name: pKd

P. Nc1nc(-c2ccc(Cc3ccccc3)cc2)cs1 [ARM1, 4-(4-benzylphenyl) thiazol-2-amine, reference compound]
Q. Nc1nc(-c2ccc(Cc3ccccc3)cc2)co1
Lowest pKd? choose P or Q Answer with the label corresponding to your selection. Q

----------
# target entity: UniProt P09960
# Sequence (P09960 1-611): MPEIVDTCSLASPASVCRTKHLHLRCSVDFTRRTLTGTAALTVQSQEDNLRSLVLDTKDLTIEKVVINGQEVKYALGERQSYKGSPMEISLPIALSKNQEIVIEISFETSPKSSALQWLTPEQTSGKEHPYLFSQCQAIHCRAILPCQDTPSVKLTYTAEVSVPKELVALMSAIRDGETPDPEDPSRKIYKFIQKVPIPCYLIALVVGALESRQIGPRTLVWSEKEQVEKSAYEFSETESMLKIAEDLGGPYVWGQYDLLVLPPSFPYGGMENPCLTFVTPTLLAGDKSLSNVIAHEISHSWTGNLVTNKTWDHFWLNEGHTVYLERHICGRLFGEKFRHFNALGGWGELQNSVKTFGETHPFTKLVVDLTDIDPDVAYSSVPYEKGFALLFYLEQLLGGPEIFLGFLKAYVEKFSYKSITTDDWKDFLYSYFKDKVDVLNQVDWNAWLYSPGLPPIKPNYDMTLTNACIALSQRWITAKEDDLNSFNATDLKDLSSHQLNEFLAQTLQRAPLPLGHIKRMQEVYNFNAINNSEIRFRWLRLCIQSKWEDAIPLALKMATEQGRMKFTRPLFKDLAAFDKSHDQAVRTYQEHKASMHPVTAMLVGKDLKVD
# assay details: Peptidase assay of LTA4H with pNa and AMC conjugates
# Assay type: biochemical
# Design: made in house; host or cells: Escherichia coli JM101
# conditions: IC50, peptidase activity with L-Pro-AMC, 5 µM L-Pro-AMC
quantity name: IC50 (nM)
State just the number; it will be interpreted in nM.

What measured IC50 goes with Nc1nc(-c2ccc(Cc3ccccc3)cc2)c[se]1 ? 250
